Please provide measured synergy score for the entries that follow.
# System: RPMI-8226 cells
# ASSAY_PROTOCOL: Anti-proliferation assay (ATPLite, 72 h), RPMI-8226
# Type: cell-based
# TEST_PARAMETERS: in combination with ADAC; RPMI-8226
Where a name gives a salt, the structure may show the parent alone.
# answer = number (no unit)

## Input Which synergy score value is on record for C[C@@H]1C[C@H]2[C@@H]3CCC4=CC(=O)C=C[C@]4(C)[C@@]3(F)[C@@H](O)C[C@]2(C)[C@@]1(O)C(=O)CO [dexamethasone] ?
## Output 4.71

## Input Requested read-out: synergy score. Entry: C[C@H]1c2cccc(O)c2C(=O)C2=C(O)[C@]3(O)C(=O)C(C(N)=O)=C(O)[C@@H](N(C)C)[C@@H]3[C@@H](O)[C@@H]21 [Doxycycline]
## Output 1.17

## Input Record request: synergy score value, item CC(=O)S[C@@H]1CC2=CC(=O)CC[C@]2(C)[C@H]2CC[C@@]3(C)[C@@H](CC[C@@]34CCC(=O)O4)[C@H]12 [Spironolactone]
## Output 0.8213

## Input Need synergy score, item CCCCOc1ccc(CC(=O)NO)cc1 [Bufexamac]
## Output 1.399

## Input Using the record for COc1cccc2c1C(=O)c1c(O)c3c(c(O)c1C2=O)C[C@@](O)(C(=O)CO)C[C@@H]3O[C@H]1C[C@H](N)[C@@H](O)[C@H](C)O1 [Epirubicin] , report its synergy score.
## Output 1.14

## Input Given the entry Cn1cnc([N+](=O)[O-])c1Sc1ncnc2nc[nH]c12 [Azathioprine] , report its measured synergy score.
## Output 1.63

## Input Entry CCc1c2c(nc3ccc(OC(=O)N4CCC(N5CCCCC5)CC4)cc13)-c1cc3c(c(=O)n1C2)COC(=O)[C@]3(O)CC [Irinotecan hydrochloride] has what synergy score?
## Output 1.414

## Input Which synergy score value belongs to Nc1ccn([C@@H]2O[C@H](CO)[C@@H](O)C2(F)F)c(=O)n1 [Gemcitibine] ?
## Output 0.3
